- System: NCI-H23 lung
- EXPERIMENT_DESCRIPTION: NCI tumour cell line growth inhibition, 48 h
Note to self: values exactly at 50 µM are Met. So TGI at or above 50 µM is Met, below is Not met.

Before answering, review these 5 worked examples.
COMPOUND: CC1=C[C@@H]2Cc3occc3C(C)(C)[C@@H]2CC1
ANSWER_LABEL: Met

COMPOUND: CN(C)c1ccc(/C=C2\C[N+](C)(C)C/C(=C\c3ccc(N(C)C)cc3)C2=O)cc1
ANSWER_LABEL: Met

COMPOUND: COc1cccc(-c2nn(-c3ccccc3)cc2-c2ccnc(NCCCNS(=O)(=O)c3cccc(F)c3)c2)c1
ANSWER_LABEL: Met

COMPOUND: O=C1CSC(N2CCN(c3cccc(Cl)c3)CC2)=N1
ANSWER_LABEL: Met

COMPOUND: CC1CC(C#N)=C2NCCCCN2C1=O (configuration not stated)
ANSWER_LABEL: Met

INPUT: Does the reported TGI for CC1=C2[C@@H](CC1)[C@]1(C)O[C@@](C(C)C)(C[C@H]1OC(=O)[C@H](C)O)[C@H]2OC(=O)/C=C/c1ccccc1 fall at or above the 50 µM mark?
OUTPUT: Not met

INPUT: Does the reported TGI for CN(C)c1ccc2c(c1)oc(=O)c1ccccc12 fall at or above the 50 µM mark?
OUTPUT: Not met

INPUT: Does the reported TGI for O=C(O)c1cc(S(=O)(=O)N=NC=C2c3ccccc3N(O)c3ccccc32)ccc1O fall at or above the 50 µM mark?
OUTPUT: Met

Data provenance: PubChem BioAssay (NCI)
